Values from paper PMC8706783

# Tested on: CYP2B6
# method-description: Enzyme induction assay, CYP2B6 activity in primary human hepatocytes
# test-conditions: CYP2B6 bupropion hydroxylation, donor HU2068, over negative control, DPV 303 nM, phenobarbital 1 mM
quantity-name: fold induction at 72 h, 303 nM
Keep it simple and answer with nothing but the number.

q: Give recorded fold induction at 72 h, 303 nM. `CCC1(c2ccccc2)C(=O)NC(=O)NC1=O`
a: 6.43

---

# target-desc: UGT1A6 (Homo sapiens)
# Sequence (P19224 27-532): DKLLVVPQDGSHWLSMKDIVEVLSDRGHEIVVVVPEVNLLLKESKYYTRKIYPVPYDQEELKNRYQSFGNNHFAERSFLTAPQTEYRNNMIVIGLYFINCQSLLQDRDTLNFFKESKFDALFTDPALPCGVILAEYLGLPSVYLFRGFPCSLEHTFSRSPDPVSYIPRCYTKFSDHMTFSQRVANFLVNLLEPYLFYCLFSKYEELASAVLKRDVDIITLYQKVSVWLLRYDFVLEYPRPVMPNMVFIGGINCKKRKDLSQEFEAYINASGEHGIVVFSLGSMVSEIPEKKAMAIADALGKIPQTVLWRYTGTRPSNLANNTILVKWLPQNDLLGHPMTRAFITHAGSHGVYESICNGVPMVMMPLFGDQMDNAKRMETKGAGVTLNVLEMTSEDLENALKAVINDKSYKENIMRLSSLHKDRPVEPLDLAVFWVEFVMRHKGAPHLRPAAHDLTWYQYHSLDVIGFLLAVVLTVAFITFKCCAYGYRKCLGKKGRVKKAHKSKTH
# method-description: Reaction phenotyping, rUGT1A6
# test-conditions: recombinant UGT1A6, pH 7.4
quantity-name: remaining at 1 h, 2 µM (%)
Give the value in % but do not write % after it.

q: Could you please provide reported remaining at 1 h, 2 µM for `Cc1cc(=O)oc2cc(O)ccc12` ? Thanks!
a: 5.26
